tested.system: OX2R (Homo sapiens, UniProt O43614)
Construct: expressed in transfected cells; host or cells: CHO (Chinese hamster ovary) cells constitutively expressing the OX2R gene and NFAT-luciferase (CHOOX2R)
Sequence (O43614 whole entry): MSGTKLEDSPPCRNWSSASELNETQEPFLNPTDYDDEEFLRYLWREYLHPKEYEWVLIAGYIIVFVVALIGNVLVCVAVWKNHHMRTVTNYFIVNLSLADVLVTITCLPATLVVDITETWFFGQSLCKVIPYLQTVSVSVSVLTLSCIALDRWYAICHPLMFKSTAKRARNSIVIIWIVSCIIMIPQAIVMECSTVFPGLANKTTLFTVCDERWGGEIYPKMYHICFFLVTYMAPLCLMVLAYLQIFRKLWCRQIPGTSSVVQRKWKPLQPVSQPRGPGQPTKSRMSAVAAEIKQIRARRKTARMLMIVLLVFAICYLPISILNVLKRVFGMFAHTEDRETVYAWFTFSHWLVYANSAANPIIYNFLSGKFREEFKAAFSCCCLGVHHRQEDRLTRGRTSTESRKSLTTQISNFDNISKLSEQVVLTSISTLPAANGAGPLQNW
measurement.protocol: Evaluation of agonist activity against OX2R (CHOOX2R cells, Fura2AM fluorescence, FDSS3000)
Assay type: cell-based
details: test compound 10 μM; CHOOX2R cells; relative to orexin-A as full agonist (100%)
# note: exactly 90% is not below, so it is 0.0; use 1.0 for Response (10 μM (%)) strictly under it

Consider the following illustrative entries.
INSERT INTO assay_data (sample_smiles, tested_system, qualitative_label) VALUES
  ('COc1ccc(-c2cccc(C(=O)N3CCCC3)c2)cc1S(=O)(=O)Nc1cccc(NCCNC(=O)c2c(F)cccc2F)c1', 'OX2R (Homo sapiens, UniProt O43614)', 1.0),
  ('COc1ccc(-c2cccc(C(=O)N(C)C)c2)cc1S(=O)(=O)Nc1cccc(NCCNC(=O)c2nccn2C)c1', 'OX2R (Homo sapiens, UniProt O43614)', 1.0);

Lab log: compare recorded Response (10 μM (%)) with 90%; is it strictly lower for COc1ccc(-c2cccc(C(=O)N(C)C)c2)cc1S(=O)(=O)Nc1cccc(NCCNC(=O)c2ccccc2C)c1 ?
1.0

Lab log: compare recorded Response (10 μM (%)) with 90%; is it strictly lower for COc1ccc(-c2cccc(C(=O)N3CCCCC3)c2)cc1S(=O)(=O)Nc1cccc(NCCNC(=O)c2cccc(F)c2)c1 ?
0.0

Lab log: compare recorded Response (10 μM (%)) with 90%; is it strictly lower for COc1ccc(-c2cccc(C(=O)N(C)C)c2)cc1S(=O)(=O)Nc1cccc(NCCNC(=O)c2c(F)cccc2OC)c1 ?
1.0

Lab log: compare recorded Response (10 μM (%)) with 90%; is it strictly lower for COc1cccc(C(=O)NCCNc2cccc(NS(=O)(=O)c3cc(-c4ncccc4F)ccc3OC)c2)c1 ?
1.0

Lab log: compare recorded Response (10 μM (%)) with 90%; is it strictly lower for COc1ccccc1C(=O)NCCNc1cccc(NS(=O)(=O)c2cc(-c3cccc(C(=O)N(C)C(C)(C)C)c3)ccc2OC)c1 ?
0.0

Lab log: compare recorded Response (10 μM (%)) with 90%; is it strictly lower for COc1ccccc1C(=O)NCCNc1cccc(NS(=O)(=O)c2cc(-c3cccc(NCC(C)C)c3)ccc2OC)c1 ?
0.0

Lab log: compare recorded Response (10 μM (%)) with 90%; is it strictly lower for COc1ccc(-c2cccc(C(=O)N(C)C)c2)cc1S(=O)(=O)Nc1cccc(NCCNC(=O)c2cccc(F)c2)c1 ?
1.0

====

tested.system: OX2R (Homo sapiens, UniProt O43614)
Construct: expressed in transfected cells; host or cells: CHO (Chinese hamster ovary) cells constitutively expressing the OX2R gene and NFAT-luciferase (CHOOX2R)
measurement.protocol: Evaluation of agonist activity against OX2R (CHOOX2R cells, Fura2AM fluorescence, FDSS3000)
Assay type: cell-based
details: test compound 10 μM; CHOOX2R cells; relative to orexin-A as full agonist (100%)
measurement.name: Response (10 μM (%))
Only the number, expressed in %, is required.

These recorded examples may help you get a feel for the data.
INSERT INTO results (sample_smiles, measurement_name, experimental_result) VALUES
  ('COc1ccc(-c2cccc(C(=O)N(C)C)c2)cc1S(=O)(=O)Nc1cccc(NCCNC(=O)c2c(F)cccc2F)c1', 'Response (10 μM (%))', 98),
  ('COc1cncc(-c2ccc(OC)c(S(=O)(=O)Nc3cccc(NCCNC(=O)c4ccccc4OC)c3)c2)c1', 'Response (10 μM (%))', 37),
  ('COc1ccccc1C(=O)NCCNc1cccc(NS(=O)(=O)c2cc(-c3cccc(CO)c3)ccc2OC)c1', 'Response (10 μM (%))', 102);

Return reported Response (10 μM (%)); argument: COc1cccc(C(=O)NCCNc2cccc(NS(=O)(=O)c3cc(-c4cc(OC)ccc4F)ccc3OC)c2)c1
127

Return reported Response (10 μM (%)); argument: COc1ccc(-c2cccc(C(=O)N3CCC3)c2)cc1S(=O)(=O)Nc1cccc(NCCNC(=O)c2c(OC)cccc2OC)c1
90

Return reported Response (10 μM (%)); argument: COc1ccc(-c2cccc(C(=O)N(C)C)c2)cc1S(=O)(=O)Nc1cccc(NCCNC(=O)c2cccc(C#N)c2)c1
88

Return reported Response (10 μM (%)); argument: COc1ccc(-c2cccc(C(=O)N(C)C)c2)cc1S(=O)(=O)Nc1cccc(NCCNC(=O)c2ccnn2C)c1
64

Just for reference, patent US9815787B2 is where these values come from.
